system: Hydroxycarboxylic acid receptor 2 (Homo sapiens)
Sequence (Q8TDS4 whole entry): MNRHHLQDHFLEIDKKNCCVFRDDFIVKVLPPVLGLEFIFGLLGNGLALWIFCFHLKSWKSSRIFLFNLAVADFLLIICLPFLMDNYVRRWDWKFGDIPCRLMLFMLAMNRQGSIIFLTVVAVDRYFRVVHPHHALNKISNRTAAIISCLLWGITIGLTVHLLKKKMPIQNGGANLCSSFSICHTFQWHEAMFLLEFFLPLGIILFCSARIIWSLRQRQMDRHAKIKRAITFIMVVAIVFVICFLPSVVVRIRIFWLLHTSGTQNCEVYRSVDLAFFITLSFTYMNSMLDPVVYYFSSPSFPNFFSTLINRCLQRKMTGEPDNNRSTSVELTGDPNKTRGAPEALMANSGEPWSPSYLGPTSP
protocol_summary: Agonist activity at human HCA2 receptor expressed in Flp-In-293 cells assessed as inhibition of forskolin-induced cAMP accumulation after 30 mins
Please provide measured EC50 for the entries that follow.
Kindly answer with a numeric value in µM, unit omitted.

Query: So what does the record say about EC50 for O=C(/C=C/c1ccc2cc(O)ccc2c1)NC1=C(C(=O)O)CCCC1 ?
Response: 1.4

Query: O=C(/C=C/c1ccc2ccccc2c1)NC1=C(C(=O)O)CCCC1 , same question.
Response: 4.5

Query: COc1ccc2nc(Cl)c(CCC(=O)NC3=C(C(=O)O)CCCC3)cc2c1 , same question.
Response: 4.1

Query: COc1ccc2nc(Cl)c(/C=C/C(=O)NC3=C(C(=O)O)CCCC3)cc2c1 , same question.
Response: 6.3

Query: O=C(CCc1ccc2cc(O)ccc2c1)NC1=C(C(=O)O)CCCC1 , same question.
Response: 1.9

Query: O=C(C#Cc1ccc2cc(O)ccc2c1)NC1=C(C(=O)O)CCCC1 , same question.
Response: 0.9

Query: O=C(O)C1=C(NC(=O)[C@@H]2C[C@H]2c2ccc3ccccc3c2)CCCC1 (racemic) , same question.
Response: 12.5

Query: Cc1ccc2cc(CCC(=O)NC3=C(C(=O)O)CCCC3)ccc2n1 , same question.
Response: 36.4

Query: O=C(/C=C/C#Cc1ccccc1)NC1=C(C(=O)O)CCCC1 , same question.
Response: 3.6

Query: O=C(/C=C/c1ccc2ccccc2n1)NC1=C(C(=O)O)CCCC1 , same question.
Response: 4.1

----------
system: UniProt:Q9BXC0
protocol_summary: Agonist activity at human HCA1 receptor expressed in Flp-In-293 cells assessed as inhibition of forskolin-induced cAMP accumulation at 50 uM after 30 mins
Format: functional, cell-based
Classify by measured inhibition: true (1) if it is equal to or exceeds 30%, false (0) if it is smaller.

Query: Is reported inhibition greater than or equal to 30% here: O=C(CCc1ccc2ncccc2c1)NC1=C(C(=O)O)CCCC1
Response: false (0)

Query: O=C(CCc1ccc2c(c1)OCO2)NC1=C(C(=O)O)CCCC1 , same question.
Response: false (0)

Query: O=C(/C=C/c1cc2ccccc2nc1Cl)NC1=C(C(=O)O)CCCC1 , same question.
Response: true (1)

Query: COc1ccc2nc(Cl)c(CCC(=O)NC3=C(C(=O)O)CCCC3)cc2c1 , same question.
Response: false (0)

Query: O=C(O)C1=C(NC(=O)[C@@H]2C[C@H]2c2ccc3ccccc3c2)CCCC1 (racemic) , same question.
Response: true (1)

Query: COc1ccc(/C=C/C(=O)NC2=C(C(=O)O)CCCC2)cc1OC , same question.
Response: true (1)

----------
system: Hydroxycarboxylic acid receptor 2 (Homo sapiens)
protocol_summary: Agonist activity at human HCA2 receptor expressed in Flp-In-293 cells assessed as inhibition of forskolin-induced cAMP accumulation after 30 mins
Type: functional, cell-based
quantity_kind: Emax (%)
Kindly answer with a numeric value in %, unit omitted.

Query: So what does the record say about Emax for O=C(CCc1ccc2ccccc2c1)NC1=C(C(=O)O)CCCC1 ?
Response: 97

Query: O=C(/C=C/c1ccc2ccccc2c1)NC1=C(C(=O)O)CCCC1 , same question.
Response: 94

Query: O=C(CCc1ccc2cc(O)ccc2c1)NC1=C(C(=O)O)CCCC1 , same question.
Response: 97

Query: O=C(O)C1=C(NC(=O)[C@@H]2C[C@H]2c2ccc3ccccc3c2)CCCC1 (racemic) , same question.
Response: 96

Query: COc1ccc2nc(Cl)c(/C=C/C(=O)NC3=C(C(=O)O)CCCC3)cc2c1 , same question.
Response: 86

----------
system: UniProt:Q8TDS4
protocol_summary: Agonist activity at human HCA2 receptor expressed in Flp-In-293 cells assessed as inhibition of forskolin-induced cAMP accumulation after 30 mins
Rule: measured EC50 below 30 µM gets Met; anything equal to or greater than 30 µM gets Not met.

Query: Quick check: EC50 of O=C(CCc1ccc2c(c1)OCO2)NC1=C(C(=O)O)CCCC1 under 30 µM?
Response: Not met

Query: O=C(/C=C/c1cc2ccccc2nc1Cl)NC1=C(C(=O)O)CCCC1 , same question.
Response: Met

Query: O=C(CCc1ccc2ccccc2c1)NC1=C(C(=O)O)CCCC1 , same question.
Response: Met

Query: COc1ccc(/C=C/C(=O)NC2=C(C(=O)O)CCCC2)c(Cl)c1OC , same question.
Response: Met

Query: O=C(/C=C/c1ccc2c(c1)OCO2)NC1=C(C(=O)O)CCCC1 , same question.
Response: Met

Query: O=C(/C=C/c1ccc2c(c1)OCCO2)NC1=C(C(=O)O)CCCC1 , same question.
Response: Met

----------
system: Hydroxycarboxylic acid receptor 1 (Homo sapiens) (UniProt Q9BXC0)
Sequence (Q9BXC0 whole entry): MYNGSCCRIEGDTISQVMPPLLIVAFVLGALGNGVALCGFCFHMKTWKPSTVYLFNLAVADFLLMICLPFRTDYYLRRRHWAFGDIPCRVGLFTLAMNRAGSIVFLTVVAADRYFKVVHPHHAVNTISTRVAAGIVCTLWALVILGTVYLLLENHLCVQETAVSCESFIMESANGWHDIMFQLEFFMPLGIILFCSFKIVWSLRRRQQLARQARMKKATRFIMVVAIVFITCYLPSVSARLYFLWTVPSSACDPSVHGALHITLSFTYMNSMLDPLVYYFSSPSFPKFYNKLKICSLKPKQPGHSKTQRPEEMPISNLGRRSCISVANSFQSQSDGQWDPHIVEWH
protocol_summary: Agonist activity at human HCA1 receptor expressed in Flp-In-293 cells assessed as inhibition of forskolin-induced cAMP accumulation at 50 uM after 30 mins
Format: functional, cell-based
quantity_kind: inhibition

Query: So what does the record say about inhibition for O=C(/C=C/c1cc2c(cc1Cl)OCO2)NC1=C(C(=O)O)CCCC1 ?
Response: 34%

Query: O=C(CCc1ccc2cc(O)ccc2c1)NC1=C(C(=O)O)CCCC1 , same question.
Response: 26%

Query: Cc1ccc2cc(CCC(=O)NC3=C(C(=O)O)CCCC3)ccc2n1 , same question.
Response: 23%

Query: COc1ccc2cc(/C=C/C(=O)NC3=C(C(=O)O)CCCC3)ccc2c1 , same question.
Response: 26%

Query: COc1ccc(/C=C/C(=O)NC2=C(C(=O)O)CCCC2)c(Cl)c1OC , same question.
Response: 36%

Query: O=C(/C=C/c1ccc2ncccc2c1)NC1=C(C(=O)O)CCCC1 , same question.
Response: 24%

Query: COc1nc2ccccc2cc1/C=C/C(=O)NC1=C(C(=O)O)CCCC1 , same question.
Response: 27%

Query: O=C(CCc1ccc2ccccc2c1)NC1=C(C(=O)O)CCCC1 , same question.
Response: 41%

Query: COc1cc2nc(/C=C/C(=O)NC3=C(C(=O)O)CCCC3)ccc2c(OC)c1OC , same question.
Response: 38%

Query: COc1ccc2nc(Cl)c(/C=C/C(=O)NC3=C(C(=O)O)CCCC3)cc2c1 , same question.
Response: 21%

Query: O=C(/C=C/c1ccc2ccccc2c1)NC1=C(C(=O)O)CCCC1 , same question.
Response: 14%

----------
system: UniProt:Q8TDS4
protocol_summary: Agonist activity at human HCA2 receptor expressed in Flp-In-293 cells assessed as inhibition of forskolin-induced cAMP accumulation at 50 uM after 30 mins
Assay type: functional, cell-based
Please provide measured inhibition for the entries that follow.
Kindly answer with a numeric value in %, unit omitted.

Query: So what does the record say about inhibition for O=C(CCc1cccc2cccnc12)NC1=C(C(=O)O)CCCC1 ?
Response: 60

Query: COc1ccc(/C=C/C(=O)NC2=C(C(=O)O)CCCC2)cc1OC , same question.
Response: 51

Query: O=C(/C=C/c1ccc2cccc(O)c2n1)NC1=C(C(=O)O)CCCC1 , same question.
Response: 27

Query: O=C(/C=C/c1ccc2ncccc2c1)NC1=C(C(=O)O)CCCC1 , same question.
Response: 68

Query: O=C(/C=C/c1cc2c(cc1Cl)OCO2)NC1=C(C(=O)O)CCCC1 , same question.
Response: 17

Query: O=C(CCc1ccc2ncccc2c1)NC1=C(C(=O)O)CCCC1 , same question.
Response: 70

Query: COc1cc(/C=C/C(=O)NC2=C(C(=O)O)CCCC2)cc(Br)c1OC , same question.
Response: 23

Query: COc1cc2nc(/C=C/C(=O)NC3=C(C(=O)O)CCCC3)ccc2c(OC)c1OC , same question.
Response: 53

Query: COc1nc2ccccc2cc1/C=C/C(=O)NC1=C(C(=O)O)CCCC1 , same question.
Response: 59

Query: O=C(/C=C/c1cc2c(cc1Br)OCO2)NC1=C(C(=O)O)CCCC1 , same question.
Response: 24

Query: O=C(O)C1=C(NC(=O)[C@H]2C[C@H]2c2ccc3ccccc3c2)CCCC1 (racemic) , same question.
Response: 34

----------
system: Hydroxycarboxylic acid receptor 3 (Homo sapiens) (UniProt P49019)
Sequence (P49019 whole entry): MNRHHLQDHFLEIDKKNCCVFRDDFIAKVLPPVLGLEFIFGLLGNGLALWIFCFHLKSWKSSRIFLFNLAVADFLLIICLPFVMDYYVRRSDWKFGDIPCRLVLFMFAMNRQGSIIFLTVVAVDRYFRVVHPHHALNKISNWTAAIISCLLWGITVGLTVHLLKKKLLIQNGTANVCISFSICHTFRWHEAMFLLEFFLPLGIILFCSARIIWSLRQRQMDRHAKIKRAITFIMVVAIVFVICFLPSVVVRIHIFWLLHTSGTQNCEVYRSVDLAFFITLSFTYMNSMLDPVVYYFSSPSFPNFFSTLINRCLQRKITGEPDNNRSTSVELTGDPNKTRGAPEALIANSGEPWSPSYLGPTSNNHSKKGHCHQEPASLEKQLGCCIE
protocol_summary: Agonist activity at human HCA3 receptor expressed in Flp-In-293 cells assessed as inhibition of forskolin-induced cAMP accumulation at 50 uM after 30 mins
Assay type: functional, cell-based
quantity_kind: inhibition (%)
Kindly answer with a numeric value in %, unit omitted.

Query: So what does the record say about inhibition for Cc1ccc2cc(CCC(=O)NC3=C(C(=O)O)CCCC3)ccc2n1 ?
Response: 54

Query: COc1nc2ccccc2cc1/C=C/C(=O)NC1=C(C(=O)O)CCCC1 , same question.
Response: 58

Query: O=C(O)C1=C(NC(=O)[C@@H]2C[C@H]2c2ccc3ccccc3c2)CCCC1 (racemic) , same question.
Response: 55

Query: COc1ccc2nc(Cl)c(CCC(=O)NC3=C(C(=O)O)CCCC3)cc2c1 , same question.
Response: 53

Query: O=C(CCc1ccc2c(c1)OCO2)NC1=C(C(=O)O)CCCC1 , same question.
Response: 62

Query: O=C(CCc1cccc2cccnc12)NC1=C(C(=O)O)CCCC1 , same question.
Response: 55

Query: O=C(/C=C/c1cc2ccccc2nc1Cl)NC1=C(C(=O)O)CCCC1 , same question.
Response: 52

Query: O=C(/C=C/c1cc2c(cc1Cl)OCO2)NC1=C(C(=O)O)CCCC1 , same question.
Response: 59

Query: O=C(/C=C/c1ccc2c(c1)OCO2)NC1=C(C(=O)O)CCCC1 , same question.
Response: 26

Query: O=C(/C=C/c1cc2c(cc1Br)OCO2)NC1=C(C(=O)O)CCCC1 , same question.
Response: 54

Query: COc1ccc(/C=C/C(=O)NC2=C(C(=O)O)CCCC2)cc1OC , same question.
Response: 58
